# Test system: U-2932
# experiment notes: growth inhibition by drug alone (1 - RLU/untreated control) (fraction); higher = stronger inhibition
# experimental setup: 10 nM; time (day): 5; 177Lu-lilotomab satetraxetan 0 ug/ml
Counter-ions that a name gives are not always drawn.
So I've got a bunch of compounds here, and I need their growth inhibition by drug alone values.
Answers are plain numbers.

compound: Nc1nc(Nc2ccc(S(N)(=O)=O)cc2)nn1C(=O)c1c(F)cccc1F
observed property: growth inhibition by drug alone
value: 0.0243

Dear colleague, could you send me growth inhibition by drug alone for each of the items below? Thanks.
1. CC(c1cc2ccccc2s1)N(O)C(N)=O (configuration not stated)
2. CCOc1cc2ncc(C#N)c(Nc3ccc(F)c(Cl)c3)c2cc1NC(=O)/C=C/CN(C)C [Pelitinib (EKB-569)]
3. CC(C)(C#N)c1cc(Cn2cncn2)cc(C(C)(C)C#N)c1
4. Nc1nc(Cl)nc2c1ncn2[C@@H]1O[C@H](CO)[C@@H](O)[C@@H]1F
5. CCOC(=O)C1=C[C@]2(CC)CCCN3CCc4c(n1c1ccccc41)[C@@H]32
6. CC[C@@]1(O)C(=O)OCc2c1cc1n(c2=O)Cc2cc3c(CN(C)C)c(O)ccc3nc2-1 [Topotecan HCl]
7. CC(=O)Nc1cccc(-n2c(=O)n(C3CC3)c(=O)c3c(Nc4ccc(I)cc4F)n(C)c(=O)c(C)c32)c1

-0.0853
-0.0741
0.0212
-0.0979
-0.0289
0.544
0.0497

Fill in growth inhibition by drug alone for each of the 8 compounds listed.
1. COc1cc2nccc(Oc3ccc(NC(=O)C4(C(=O)Nc5ccc(F)cc5)CC4)cc3)c2cc1OC [XL-184 free base (Cabozantinib)]
2. CCN[C@H]1C[C@H](C)S(=O)(=O)c2sc(S(N)(=O)=O)cc21 [Dorzolamide HCL]
3. Oc1nc(-c2ccc(C(F)(F)F)cc2)nc2c1CSCC2
4. COc1ccc(-c2ccc3c(N4CCOC[C@@H]4C)nc(N4CCOC[C@@H]4C)nc3n2)cc1CO
5. CNC(=O)c1cc(Oc2ccc(NC(=O)Nc3ccc(Cl)c(C(F)(F)F)c3)cc2)ccn1
6. CN(C)CCOc1ccc(-c2nc(-c3ccncc3)c(-c3ccc4c(c3)CC/C4=N\O)[nH]2)cc1
7. CCN(CC)CCCCNc1ncc2cc(-c3cc(OC)cc(OC)c3)c(NC(=O)NC(C)(C)C)nc2n1
8. C[C@]12CC[C@@H]3c4ccc(O)cc4CC[C@H]3[C@@H]1CCC2=O

-0.102
-0.0257
-0.0107
0.0822
0.0056
-0.0892
-0.0732
0.0943

Field: growth inhibition by drug alone. Fill in for each record below.
1. COc1ccccc1OCC(O)CN1CCN(CC(=O)Nc2c(C)cccc2C)CC1 (configuration not stated) [Ranolazine (Ranexa)]
2. COc1ccc2c(c1)CCC1C2CCC2(C)C(NCCCCCCN3C(=O)C=CC3=O)CCC12 (configuration not stated)
3. COc1cc2c(N3CCN(C(=O)Nc4ccc(OC(C)C)cc4)CC3)ncnc2cc1OCCCN1CCCCC1
4. FC(F)c1nc2ccccc2n1-c1nc(N2CCOCC2)nc(N2CCOCC2)n1
5. O=C(Nc1cccnc1)N1CCC(Cc2cccc(Oc3ccc(C(F)(F)F)cn3)c2)CC1

1. -0.0749
2. 0.0171
3. -0.013
4. 0.0466
5. -0.0107
